Test system: MCF-7 cells (B[α]P-DNA adducts)
Assay: Binding of metabolically activated [3H]B[α]P to DNA of cultured MCF-7 cells
Format: cell-based
Details: Homo sapiens, MCF7, read-out: IC50, formation of B[α]P-DNA adducts, MCF-7
pIC50: −log10 of the molar value.
quantity-name: pIC50

Incoming: Which pIC50 reading was recorded for the compound O=c1cc(-c2ccc(Br)cc2)oc2ccccc12 ?
Outgoing: ~5.77

* * *

So I've got a bunch of molecules here, and I need their CI, chemoprevention index (IC50/CD) values.
Test system: quinone reductase (QR), Hepa 1c1c7 cells
Assay: Quinone reductase (QR) induction in Hepa 1c1c7 cells
Type: cell-based, murine
Settings: IC50/CD; 2880 min
Hey, just send me the number, nothing else.

Incoming: Which CI, chemoprevention index (IC50/CD) reading was recorded for the molecule O=C(/C=C/c1ccc(Br)cc1)c1ccccc1O [4-Bromo-2'-hydroxychalcone] ?
Outgoing: 4

Incoming: Which CI, chemoprevention index (IC50/CD) reading was recorded for the molecule C[S+]([O-])CCCCN=C=S (stereo not shown) [Sulforaphane, sulforaphane, reference compound] ?
Outgoing: 26

Incoming: Which CI, chemoprevention index (IC50/CD) reading was recorded for the molecule O=C(/C=C/c1ccccc1[N+](=O)[O-])c1ccccc1O [2'-Hydroxy-2-nitrochalcone] ?
Outgoing: 37

Incoming: Which CI, chemoprevention index (IC50/CD) reading was recorded for the molecule O=C1CC(c2cccc3ccccc23)Oc2ccccc21 (stereo not shown) ?
Outgoing: 24

Incoming: Which CI, chemoprevention index (IC50/CD) reading was recorded for the molecule O=C1CC(c2ccc(Br)cc2)Oc2ccccc21 (stereo not shown) ?
Outgoing: 27

Incoming: Which CI, chemoprevention index (IC50/CD) reading was recorded for the molecule O=C(/C=C/c1cccc(Br)c1)c1ccccc1O [3-Bromo-2'-hydroxychalcone] ?
Outgoing: 16

Incoming: Which CI, chemoprevention index (IC50/CD) reading was recorded for the molecule Cc1ccccc1/C=C/C(=O)c1ccccc1O [2'-Hydroxy-2-methylchalcone] ?
Outgoing: 54

Incoming: Which CI, chemoprevention index (IC50/CD) reading was recorded for the molecule O=c1cc(-c2cccc(Br)c2)oc2ccccc12 ?
Outgoing: 32

Incoming: Which CI, chemoprevention index (IC50/CD) reading was recorded for the molecule O=c1cc(-c2ccccc2F)oc2ccccc12 ?
Outgoing: 104

* * *

Tested on: quinone reductase (QR), Hepa 1c1c7 cells
Assay: Quinone reductase (QR) induction in Hepa 1c1c7 cells
Format: cell-based, murine
Conditions: IC50/CD; 2880 min
Returns: string. Value is True if measured CI, chemoprevention index (IC50/CD) is below 40, and False if it is greater than or equal to it.

Incoming: In the record for O=c1cc(-c2ccc(C(F)(F)F)cc2)oc2ccccc12 , is CI, chemoprevention index (IC50/CD) less than 40?
Outgoing: False

Incoming: In the record for O=c1cc(-c2ccccc2)oc2ccccc12 , is CI, chemoprevention index (IC50/CD) less than 40?
Outgoing: False

Incoming: In the record for Cc1ccccc1C1CC(=O)c2ccccc2O1 (centres unmarked) , is CI, chemoprevention index (IC50/CD) less than 40?
Outgoing: False

Incoming: In the record for O=C(/C=C/c1ccccc1Br)c1ccccc1O [2-Bromo-2'-hydroxychalcone] , is CI, chemoprevention index (IC50/CD) less than 40?
Outgoing: True

Incoming: In the record for COc1ccccc1/C=C/C(=O)c1ccccc1O [2'-Hydroxy-2-methoxychalcone] , is CI, chemoprevention index (IC50/CD) less than 40?
Outgoing: False

* * *

System: quinone reductase (QR), Hepa 1c1c7 cells
Assay: Quinone reductase (QR) induction in Hepa 1c1c7 cells
Format: cell-based, murine
Details: Hepa 1c1c7 cells, 48 h; read-out: CD, concentration to double the specific activity of QR
quantity-name: EC (2-fold)

Incoming: Which EC (2-fold) reading was recorded for the molecule O=c1cc(-c2ccc(Cl)cc2)oc2ccccc12 ?
Outgoing: 0.02 µM

Incoming: Which EC (2-fold) reading was recorded for the molecule O=c1cc(-c2ccccc2F)oc2ccccc12 ?
Outgoing: 0.80 µM

Incoming: Which EC (2-fold) reading was recorded for the molecule Cc1ccccc1C1CC(=O)c2ccccc2O1 (centres unmarked) ?
Outgoing: 1.00 µM

Incoming: Which EC (2-fold) reading was recorded for the molecule O=c1cc(-c2cccc(Cl)c2)oc2ccccc12 ?
Outgoing: < 0.58 µM

Incoming: Which EC (2-fold) reading was recorded for the molecule COc1cccc(OC)c1/C=C/C(=O)c1ccccc1O [2'-Hydroxy-2,6-dimethoxychalcone] ?
Outgoing: 0.54 µM

* * *

Tested on: quinone reductase (QR), Hepa 1c1c7 cells
Assay: Quinone reductase (QR) induction in Hepa 1c1c7 cells
Assay type: cell-based, murine
Conditions: IC50/CD; 2880 min
Method: This test was used because the specific activity of QR rises concomitantly with other phase II enzymes in many animal tissues in response to various chemopreventive agents. […] Determination of Quinone Reductase Activity in Cell Cultures. […] Specific QR activity was determined by measuring the NADPH-dependent menadiol-mediated reduction of 3-(4, 5-dimethylthiazo-2-yl)-2,5-diphenyltetrazolium bromide to blue formazan formed per mg protein per minute. […]
quantity-name: CI, chemoprevention index (IC50/CD)
Hey, just send me the number, nothing else.

Incoming: Which CI, chemoprevention index (IC50/CD) reading was recorded for the compound O=c1cc(-c2cccc(F)c2)oc2ccccc12 ?
Outgoing: 63

Incoming: Which CI, chemoprevention index (IC50/CD) reading was recorded for the compound COc1cccc(OC)c1/C=C/C(=O)c1ccccc1O [2'-Hydroxy-2,6-dimethoxychalcone] ?
Outgoing: 26

* * *

Test system: HepG2 cells (B[α]P-DNA adducts)
Assay: Binding of metabolically activated [3H]B[α]P to DNA of cultured HepG2 cells
Format: cell-based
Conditions: Homo sapiens, read-out: IC50, formation of B[α]P-DNA adducts, HepG2
pIC50: −log10 of the molar value.
quantity-name: pIC50

Incoming: Which pIC50 reading was recorded for the molecule O=c1cc(-c2ccc(Br)cc2)oc2ccccc12 ?
Outgoing: ~5.51

* * *

So I've got a bunch of compounds here, and I need their CI, chemoprevention index (IC50/CD) values.
Tested on: quinone reductase (QR), Hepa 1c1c7 cells
Assay: Quinone reductase (QR) induction in Hepa 1c1c7 cells
Assay type: cell-based, murine
Conditions: IC50/CD; 2880 min

Incoming: Which CI, chemoprevention index (IC50/CD) reading was recorded for the compound O=c1cc(-c2ccc(Cl)cc2)oc2ccccc12 ?
Outgoing: > 5000

Incoming: Which CI, chemoprevention index (IC50/CD) reading was recorded for the compound O=C(/C=C/c1ccc(C(F)(F)F)cc1)c1ccccc1O [2'-Hydroxy-4-trifluoromethylchalcone] ?
Outgoing: > 100

Incoming: Which CI, chemoprevention index (IC50/CD) reading was recorded for the compound O=c1cc(-c2cccc(Cl)c2)oc2ccccc12 ?
Outgoing: > 40

Incoming: Which CI, chemoprevention index (IC50/CD) reading was recorded for the compound COc1ccccc1C1CC(=O)c2ccccc2O1 (stereo not shown) ?
Outgoing: > 125

* * *

So I've got a bunch of compounds here, and I need their CI, chemoprevention index (IC50/CD) values.
Test system: quinone reductase (QR), Hepa 1c1c7 cells
Experiment: Quinone reductase (QR) induction in Hepa 1c1c7 cells
Type: cell-based, murine
Conditions: IC50/CD; 2880 min

Incoming: Which CI, chemoprevention index (IC50/CD) reading was recorded for the compound O=c1cc(-c2ccc(Br)cc2)oc2ccccc12 ?
Outgoing: > 17000

Incoming: Which CI, chemoprevention index (IC50/CD) reading was recorded for the compound O=c1cc(-c2ccc(F)cc2)oc2ccccc12 ?
Outgoing: > 24

Incoming: Which CI, chemoprevention index (IC50/CD) reading was recorded for the compound O=C(/C=C/c1cccc(C(F)(F)F)c1)c1ccccc1O [2'-Hydroxy-3-trifluoromethylchalcone] ?
Outgoing: > 23
